Tested on: Mus musculus
test: Antinociceptive activity in ip dosed NMRI mouse neuropathic pain model assessed as protection against formalin-induced nociceptive behaviour after 30 mins
Format: functional
measurement_context: 0.5 h
assay_readout: ED50

[[record]]
compound = "NC(C(=O)NCc1ccccc1)c1ccco1 (racemic)"
data_value = "29 mg/kg"

[[record]]
compound = "Cc1ccc(C(N)C(=O)NCc2ccccc2)o1 (racemic)"
data_value = "> 78 mg/kg"

[[record]]
compound = "NC(C(=O)NCc1ccccc1)c1cc2ccccc2s1 (racemic)"
data_value = "66 mg/kg"

[[record]]
compound = "NC(C(=O)NCc1ccccc1)c1ccc2ccccc2n1 (racemic)"
data_value = "54 mg/kg"

[[record]]
compound = "NC(C(=O)NCc1ccccc1)c1cnc2ccccc2n1 (racemic)"
data_value = "42 mg/kg"

[[record]]
compound = "NC(C(=O)NCc1ccccc1)c1ccc2ccccc2c1 (racemic)"
data_value = "< 110 mg/kg"

[[record]]
compound = "NC(C(=O)NCc1ccccc1)c1ccncc1 (racemic)"
data_value = "67 mg/kg"

[[record]]
compound = "NC(C(=O)NCc1ccccc1)c1cccc2ccccc12 (racemic)"
data_value = "> 33 mg/kg"

[[record]]
compound = "NC(C(=O)NCc1ccccc1)c1cnccn1 (racemic)"
data_value = "> 160 mg/kg"

[[record]]
compound = "NC(C(=O)NCc1ccccc1)c1nccs1 (racemic)"
data_value = "45 mg/kg"

[[record]]
compound = "NC(C(=O)NCc1ccccc1)c1cccnc1 (racemic)"
data_value = "74 mg/kg"


====

Test system: Mus musculus
test: Anticonvulsant activity in ip dosed NMRI mouse assessed as protection against maximal electroshock-induced seizure after 30 mins postdose
Assay type: functional
measurement_context: 0.5 h
assay_readout: ED50 (mg/kg)

[[record]]
compound = "NC(C(=O)NCc1ccccc1)c1cccc2ccccc12 (racemic)"
assay_readout = "ED50"
result_qualifier = ">"
data_value = 69

[[record]]
compound = "NC(C(=O)NCc1ccccc1)c1ccccc1 (racemic)"
assay_readout = "ED50"
result_qualifier = ">"
data_value = 30

[[record]]
compound = "NC(C(=O)NCc1ccccc1)c1ccc2ccccc2n1 (racemic)"
assay_readout = "ED50"
result_qualifier = ">"
data_value = 41

[[record]]
compound = "NC(C(=O)NCc1ccccc1)c1cc2ccccc2s1 (racemic)"
assay_readout = "ED50"
result_qualifier = "="
data_value = 120

[[record]]
compound = "CCCC(CCC)C(=O)[O-].[Na+] [VALPROATE SODIUM]"
assay_readout = "ED50"
result_qualifier = "="
data_value = 270

[[record]]
compound = "NC(C(=O)NCc1ccccc1)c1nccs1 (racemic)"
assay_readout = "ED50"
result_qualifier = "="
data_value = 67

[[record]]
compound = "NC(C(=O)NCc1ccccc1)c1cc2ccccc2o1 (racemic)"
assay_readout = "ED50"
result_qualifier = "="
data_value = 90

[[record]]
compound = "NC(C(=O)NCc1ccccc1)c1ccco1 (racemic)"
assay_readout = "ED50"
result_qualifier = "="
data_value = 85

[[record]]
compound = "NC(C(=O)NCc1ccccc1)c1nccc2ccccc12 (racemic)"
assay_readout = "ED50"
result_qualifier = ">"
data_value = 52

[[record]]
compound = "NC(C(=O)NCc1ccccc1)c1cnc2ccccc2n1 (racemic)"
assay_readout = "ED50"
result_qualifier = ">"
data_value = 120

[[record]]
compound = "CCC1(c2ccccc2)C(=O)NC(=O)NC1=O"
assay_readout = "ED50"
result_qualifier = "="
data_value = 22

[[record]]
compound = "NC(C(=O)NCc1ccccc1)c1ccc2ccccc2c1 (racemic)"
assay_readout = "ED50"
result_qualifier = "="
data_value = 45


Hello, the source for this data is ChEMBL document CHEMBL2034888, in case you need it.
